Entry source: paper PMC5540273

Tested on: CDK8
measurement context: concentration: 1 μM, replicates: in singlicate; n = 1;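 further: KINOMEscan kinase panel screen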
measure name: %Inh (%)
Respond numerically; units are % and should not be typed.

Solved cases below.
compound: COC(=O)Nc1nc2cc(Oc3ccc(NC(=O)Nc4cc(C(F)(F)F)ccc4F)cn3)ccc2[nH]1.Cl.Cl
%Inh (%): 100
--
compound: C[C@@H](Oc1cc(-n2cnc3cc(-c4ccnc(NCCS(C)(=O)=O)c4)ccc32)sc1C(N)=O)c1ccccc1Cl
%Inh (%): 0
--
compound: CC(=O)Nc1nc2cnc(Nc3cc(NC(=O)c4cccc(C5(C#N)CC5)c4Cl)ccc3C)nc2s1
%Inh (%): 21

[Q] What %Inh appears in the records for this compound with CDK8? `Cn1cc(-c2[nH]c3cc(NC(=O)[C@H](N)C4CCCCC4)cc4c3c2C=NNC4=O)cn1`
[A] 0

[Q] What %Inh appears in the records for this compound with CDK8? COc1cc(Nc2nccc(N3CCC(NC(=O)c4cc5ccccc5s4)C3)n2)cc(OC)c1OC (centres unmarked)
[A] 38

[Q] What %Inh appears in the records for this compound with CDK8? `Cc1ccc(S(=O)(=O)Nc2ccc(Nc3nccc(Nc4cccc5[nH]ncc45)n3)cc2)cc1`
[A] 13

[Q] What %Inh appears in the records for this compound with CDK8? `c1ccc(Oc2ccc(Nc3ccnc4cc(-c5ccc(CNCCN6CCOCC6)o5)ccc34)cc2)nc1`
[A] 55

[Q] What %Inh appears in the records for this compound with CDK8? COc1ccc(Nc2nccc(N3CCC(NC(=O)Nc4cccc(OC)c4)C3)n2)cc1 (centres unmarked)
[A] 72

---

Test system: IKK-epsilon
Construct: gene IKBKE
measurement context: concentration: 1 μM, replicates: in singlicate; n = 1
Decide by %Inh: equal to or exceeding 5% means Met, less means Not met.

Look over these answered cases.
input smiles: COC(=O)Nc1nc2cc(Oc3ccc(NC(=O)Nc4cc(C(F)(F)F)ccc4F)cn3)ccc2[nH]1.Cl.Cl
label value: Not met
//
input smiles: O=C(Nc1cccc(-c2nn3ncccc3c2-c2ccnc(Nc3ccccc3)n2)c1)c1c(F)cccc1F
label value: Not met
//
input smiles: O=C(Nc1ccccc1F)NC1CCN(c2ccnc(Nc3ccc(F)cc3)n2)CC1
label value: Met
//
input smiles: CCCCc1nn2ncccc2c1-c1ccnc(Nc2ccc(N3CCN(C)CC3)cc2)n1
label value: Met

# next compound below
[Q] # bool: %Inh of `Cn1cc(-c2ccc3c(c2)CCN3C(=O)Cc2cccc(F)c2)c2c(N)ncnc21` >= 5%
[A] Met

---

Tested on: RIOK3
measurement context: concentration: 1 μM, replicates: in singlicate; n = 1
measure name: %Inh (%)
Respond numerically; units are % and should not be typed.

compound: CN(C)S(=O)(=O)c1cc(-c2ccc3nccc(-c4cccc(S(N)(=O)=O)c4)c3c2)cnc1N
system under test: RIOK3
reading: 21

[Q] Entry COc1cccc(NC(=O)NC2CCN(c3ccnc(Nc4cc(OC)c(OC)c(OC)c4)n3)C2)c1 (stereo not drawn) : reported %Inh = ?
[A] 82

[Q] Entry `COc1ccc(CNC(=O)NC2CCN(c3ccnc(Nc4ccc(F)cc4)n3)CC2)cc1` : reported %Inh = ?
[A] 0

[Q] Entry `CC(C)c1nc(-c2cccc(NS(=O)(=O)c3c(F)cccc3F)c2F)c(-c2ccnc(Nc3ccc(N4CCOCC4)nc3)n2)s1` : reported %Inh = ?
[A] 17

[Q] Entry `O=c1[nH]cc(-c2ccc(N3CCOCC3)cc2)c2sc(-c3cn[nH]c3)cc12` : reported %Inh = ?
[A] 25

[Q] Entry Cl.Cl.NCC(NCc1ccc(-c2ccnc3[nH]ccc23)s1)c1ccccc1 (stereo not drawn) : reported %Inh = ?
[A] 98.4

---

Tested on: STK33
measurement context: concentration: 1 μM, replicates: in singlicate; n = 1
measure name: %Inh (%)
Respond numerically; units are % and should not be typed.

Solved cases below.
compound: Cc1ccc(F)c(C(=O)Nc2cccc(-c3nn4ccccc4c3-c3ccnc(Nc4cccc(F)c4)n3)c2)c1F
system under test: STK33
reading: 4
//
compound: COCCOCCOc1cc2ncc3c4ccc(C#N)cc4[nH]c3c2cc1OC
system under test: STK33
reading: 24
//
compound: COc1ccc(-c2coc3ccc(-c4nnc(SCc5ccc(OC)c(C(F)(F)F)c5)o4)cc23)cc1
system under test: STK33
reading: 7
//
compound: Cl.Cl.NCC(NC(=O)c1cc(-c2ccccc2)c(-c2ccnc3[nH]ccc23)s1)c1ccccc1 (centres unmarked)
system under test: STK33
reading: 100

[Q] Entry `COc1cc(Nc2ncc3c(C)nc(-c4cc5ccccc5[nH]4)n3n2)cc(OC)c1OC` : reported %Inh = ?
[A] 10

[Q] Entry `Cc1cccc(NC(=O)Nc2ccc(Oc3ncnc4ccn(C)c34)cc2)c1` : reported %Inh = ?
[A] 0

[Q] Entry `COc1cc2c(cc1OCCN1CCNCC1)ncc1c3ccc(C#N)cc3[nH]c21` : reported %Inh = ?
[A] 19

[Q] Entry `CCS(=O)(=O)c1ccc(OC)c(Nc2nccc(-c3c(-c4cccc(NC(=O)c5c(F)cccc5F)c4)nn4ncccc34)n2)c1` : reported %Inh = ?
[A] 7

---

System: BRSK2
measurement context: concentration: 1 μM, replicates: in singlicate; n = 1
measure name: %Inh (%)
Respond numerically; units are % and should not be typed.

compound: O=c1[nH]cc(-c2ccc(N3CCOCC3)cc2)c2sc(-c3cn[nH]c3)cc12
measure name: %Inh
reading: 0

[Q] Entry `Oc1cc(Nc2ccnc3cc(I)ccc23)ccc1F` : reported %Inh = ?
[A] 0

[Q] Entry `C[C@@H](Oc1cc(-n2cnc3cc(-c4ccnc(NCCS(C)(=O)=O)c4)ccc32)sc1C(N)=O)c1ccccc1Cl` : reported %Inh = ?
[A] 78

[Q] Entry `CN(C)Cc1ccc(-c2ccc3c(Nc4ccc(Oc5ccccn5)cc4)ccnc3c2)o1` : reported %Inh = ?
[A] 0

[Q] Entry `CCCCc1nn2ncccc2c1-c1ccnc(Nc2ccc(N3CCN(C)CC3)cc2)n1` : reported %Inh = ?
[A] 0

[Q] Entry `CN1CCN(CCCNc2nccc(-c3c(-c4ccc(F)cc4)nn4cc(C(F)(F)F)ccc34)n2)CC1` : reported %Inh = ?
[A] 1

[Q] Entry `CC(C)(C)c1ccc2nccc(Nc3cccc(O)c3)c2c1` : reported %Inh = ?
[A] 11

[Q] Entry `COC(=O)Nc1nc2ccc(Oc3ccc(NC(=O)Nc4cc(C(F)(F)F)ccc4F)cc3)cc2n1C.Cl` : reported %Inh = ?
[A] 26

[Q] Entry `COC(=O)Nc1nc2cc(Oc3ccc(NC(=O)Nc4cc(C(F)(F)F)ccc4F)cn3)ccc2[nH]1.Cl.Cl` : reported %Inh = ?
[A] 0

[Q] Entry `CN1CCN(Cc2cccc(-c3ccc4c(Nc5ccc(Oc6ccccc6)cc5)ccnc4c3)c2)CC1` : reported %Inh = ?
[A] 1

[Q] Entry `CCn1c(-c2nonc2N)nc2c(C#CC(C)(C)O)nc(OC[C@H](N)c3ccccc3)cc21` : reported %Inh = ?
[A] 50

---

Tested on: EPHA6
measurement context: concentration: 1 μM, replicates: in singlicate; n = 1
Property: %Inh; scope: individual molecules
Just the number plus its unit, please.

Solved cases below.
input smiles: CN1CCN(Cc2cccc(-c3ccc4c(Nc5ccc(Oc6ccccc6)cc5)ccnc4c3)c2)CC1
reading: 7%

input smiles: CC(=O)Nc1nc2cnc(Nc3cc(NC(=O)c4cccc(C5(C#N)CC5)c4Cl)ccc3C)nc2s1
reading: 56%

input smiles: Cc1ccc(C(=O)N2CC[C@@H](O)C2)cc1-n1c(C)cc(OCc2ccc(F)cc2F)c(Br)c1=O
reading: 0%

Next up:
[Q] Entry `COc1cc2c(cc1OCCN1CCNCC1)ncc1c3ccc(C#N)cc3[nH]c21` : reported %Inh = ?
[A] 0%

---

Tested on: CSNK1E
measurement context: concentration: 1 μM, replicates: in singlicate; n = 1
measure name: %Inh (%)
Respond numerically; units are % and should not be typed.

Solved cases below.
compound: COc1ccc(-c2coc3ccc(-c4nnc(SCc5ccc(OC)c(C(F)(F)F)c5)o4)cc23)cc1
scale unit: %
reading: 0
//
compound: Cl.Cl.NCC(C(=O)Nc1cc(Br)c(-c2ccnc3[nH]ccc23)s1)c1ccccc1 (stereo not shown)
scale unit: %
reading: 28
//
compound: COCCOCCOc1cc2ncc3c4ccc(C#N)cc4[nH]c3c2cc1OC
scale unit: %
reading: 2
//
compound: NCCCC(NC(=O)c1cc(Br)c(-c2ccnc3[nH]ccc23)s1)c1ccccc1.O=C(O)C(F)(F)F.O=C(O)C(F)(F)F (stereo not shown)
scale unit: %
reading: 84
//
compound: c1ccc(Oc2ccc(Nc3ccnc4cc(-c5ccc(CNCCN6CCOCC6)o5)ccc34)cc2)nc1
scale unit: %
reading: 0
//
compound: O=C(Nc1cccc(-c2nn3ncccc3c2-c2ccnc(Nc3ccccc3)n2)c1)c1c(F)cccc1F
scale unit: %
reading: 85
//
compound: Cc1ccc(C(=O)N2CC[C@@H](O)C2)cc1-n1c(C)cc(OCc2ccc(F)cc2F)c(Br)c1=O
scale unit: %
reading: 0
//
compound: Cc1ccc(F)c(C(=O)Nc2cccc(-c3nn4ccccc4c3-c3ccnc(Nc4cccc(F)c4)n3)c2)c1F
scale unit: %
reading: 54
//
compound: O=C(Nc1cccc(Oc2ccc3nc(NC(=O)C4CC4)cn3n2)c1)c1ccccc1C(F)(F)F
scale unit: %
reading: 20
//
compound: CC(=O)N1CCN(c2ccc(Nc3nccc(-c4sc(C(C)C)nc4-c4cccc(NS(=O)(=O)c5cccc(Cl)c5)c4)n3)cn2)CC1
scale unit: %
reading: 0

[Q] What %Inh appears in the records for this compound with CSNK1E? `COc1cc(Nc2nccc(-c3c(-c4cccc(NC(=O)c5c(F)cccc5F)c4)nn4ncccc34)n2)cc(OC)c1OC`
[A] 94.7
